Measured growth values are reported for all entries that follow.
System: OVCAR-3 ovarian
Assay: NCI-60 one-dose screen, 48 h (100 = growth as untreated, 0 = no growth, -100 = all killed)
Conditions: 10 µM unless noted
This is part of a sample that, as a whole, favours compounds with a hit. Of some 83,000 tested, about 20% had one in any assay.
property measured: growth (%)

[[record]]
smiles_record = "Cc1ccc(C(=O)Nc2ccccc2C(=O)N/N=C(\\c2ccccc2)c2ccccn2)cc1"
tgt = "OVCAR-3 ovarian"
property_measured = "growth"
readout_value = 22.5

[[record]]
smiles_record = "Cc1cc(Nc2cccc(C(F)(F)F)c2)n2c(nc3ccccc32)c1C#N"
tgt = "OVCAR-3 ovarian"
property_measured = "growth"
readout_value = 39.4

[[record]]
smiles_record = "O=S(=O)(NCCCNc1nccc(-c2c(-c3ccc(F)c(O)c3)nc3sccn23)n1)c1ccc(F)cc1"
tgt = "OVCAR-3 ovarian"
property_measured = "growth"
readout_value = 20.8

[[record]]
smiles_record = "CCNC(=S)NNC(=O)c1cc2ccc1CCc1ccc(cc1)CC2"
tgt = "OVCAR-3 ovarian"
property_measured = "growth"
readout_value = 98.6

[[record]]
smiles_record = "S=c1[nH]cccc1-c1nnc2n1Nc1nc3ccc(Cl)cc3cc1CS2"
tgt = "OVCAR-3 ovarian"
property_measured = "growth"
readout_value = 105


# credit: PubChem BioAssay (NCI)
